Record: pIC50 reported on Histone deacetylase 3 (Homo sapiens).
Sequence (O15379 whole entry): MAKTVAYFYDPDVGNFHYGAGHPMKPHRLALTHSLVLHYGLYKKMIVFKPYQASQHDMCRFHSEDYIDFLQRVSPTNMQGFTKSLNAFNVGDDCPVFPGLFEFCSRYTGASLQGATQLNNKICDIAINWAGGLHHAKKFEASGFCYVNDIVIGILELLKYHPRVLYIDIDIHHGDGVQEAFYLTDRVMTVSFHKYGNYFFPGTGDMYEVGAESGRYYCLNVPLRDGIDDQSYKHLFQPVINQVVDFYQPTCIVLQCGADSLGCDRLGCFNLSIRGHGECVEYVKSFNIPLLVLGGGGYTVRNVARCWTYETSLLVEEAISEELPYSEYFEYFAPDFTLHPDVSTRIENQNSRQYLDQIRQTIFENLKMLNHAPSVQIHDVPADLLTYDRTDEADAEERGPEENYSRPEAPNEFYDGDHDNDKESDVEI
Please keep in mind that pIC50 is minus log10 of the molar concentration; only the number is needed.

smiles-repr | pIC50
CCc1c(C(=O)Nc2cccc(/C=C/C(=O)NO)c2)[nH]c(C)c1C(C)=O | 6.83

State the recorded pIC50 for this entry: `CCc1c(C(=O)Nc2cc(/C=C/C(=O)NO)ccc2OC)[nH]c(C)c1C(C)=O` 6.92

Bench note: what pIC50 did `Cc1[nH]c(C(=O)Nc2cc(S(=O)(=O)N3CCOCC3)ccc2OCCCCCCCC(=O)NO)c2c1C(=O)CCCC2` show? 6.53

====

Molecular target: Histone deacetylase 1 (Homo sapiens, UniProt Q13547)
Sequence (Q13547 whole entry): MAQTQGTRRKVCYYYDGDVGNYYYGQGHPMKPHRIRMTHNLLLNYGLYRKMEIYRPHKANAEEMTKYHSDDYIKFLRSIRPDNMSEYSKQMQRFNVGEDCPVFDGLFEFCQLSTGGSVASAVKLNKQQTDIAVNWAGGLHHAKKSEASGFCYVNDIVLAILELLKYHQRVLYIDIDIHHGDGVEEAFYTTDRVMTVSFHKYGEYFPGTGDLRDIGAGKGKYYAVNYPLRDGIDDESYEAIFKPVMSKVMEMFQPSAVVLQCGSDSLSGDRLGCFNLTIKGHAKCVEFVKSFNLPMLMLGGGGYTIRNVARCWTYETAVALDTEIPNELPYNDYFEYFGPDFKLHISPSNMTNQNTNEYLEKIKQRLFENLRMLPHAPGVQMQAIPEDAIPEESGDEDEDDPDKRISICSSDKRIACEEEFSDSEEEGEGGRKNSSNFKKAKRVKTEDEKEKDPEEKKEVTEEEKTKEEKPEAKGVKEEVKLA
Test: Inhibition of human recombinant HDAC1 assessed as fluorescence using fluorogenic substrate ZMAL incubated for 90 min by microplate reader
pIC50: −log10 of the molar value.
Use 6 as the dividing line for pIC50, with the line itself on the 1 side and lower values as -1.

smiles-repr | category-label
CCc1c(C(=O)Nc2cccc(CCC(=O)OC)c2)[nH]c(C)c1C(C)=O | -1
Cc1c2c(c(C(=O)Nc3cc(S(=O)(=O)N4CCOCC4)ccc3OCCCCCCCC(=O)NO)n1C)CCCCC2=O | 1
COc1ccc(S(=O)(=O)n2ccc(/C=C/C(=O)NO)c2)cc1NC(=O)c1[nH]c(C)c2c1CCCCC2=O | 1
CCc1c(C(=O)Nc2cccc(CCC(=O)Nc3ccccc3N)c2)[nH]c(C)c1C(C)=O | -1
CCc1c(C(=O)Nc2cc(S(=O)(=O)Nc3cccc(/C=C/C(=O)NO)c3)ccc2OC)[nH]c(C)c1C(C)=O | 1
COC(=O)CCCCCCCOc1ccc(S(=O)(=O)N2CCOCC2)cc1NC(=O)c1c2c(c(C)n1C)C(=O)CCCC2 | -1
Cc1[nH]c(C(=O)Nc2cc(S(=O)(=O)N3CCOCC3)ccc2OCCCCCCCC(=O)NO)c2c1C(=O)CCCC2 | 1
CCc1c(C(=O)Nc2cc(/C=C/C(=O)NO)ccc2O)[nH]c(C)c1C(C)=O | 1

Reported pIC50 reaches at least 6 for `CCc1c(C(=O)Nc2cc(/C=C/C(=O)NO)ccc2OC)[nH]c(C)c1C(C)=O` ? 1

Hello, I need to know if `CCc1c(C(=O)Nc2cccc(/C=C/C(=O)NO)c2)[nH]c(C)c1C(C)=O` has measured pIC50 not below 6. Thanks! 1
